Listing of recorded cytotoxicity at 70.5 h by entry.
- assay_comment: Human HepG2 cell viability assay in 384 well format
- Format: toxicity, cell-based
- Design: dose 125 nL, time 70.5 hour; concentration not given beside the values
- test_conditions: HepG2 cells, read-out: Inhibition
measurement_type: cytotoxicity at 70.5 h (%)

1. CCCc1nnsc1C(=O)N1CCN(CC(C)O)CC1 (stereo not drawn) :: -1.92
2. Cc1ccc(CNC(=O)c2c[nH]nc2NC(=O)COCC2CC2)cc1 :: -3.76
3. COc1ccc(CNc2c(N3CCN(C)CC3)c(=O)c2=O)cc1 :: -8.39
4. CC(NC(=O)Cc1ccon1)c1ccc(OCC2CC2)c(F)c1 (stereo not drawn) :: -7.52
5. C[C@@H](NC(=O)c1cccs1)c1onc(-c2cccnc2)c1C(=O)O :: 2.92
6. CC(NC1CCSCC1)c1ccccc1-n1cccn1 (stereo not drawn) :: -11.7
7. Cc1cc(=O)n(CC(=O)NC2CCCCC2)c2ccccc12 :: -8.81
8. O=C1CC(Cc2ccc(NC(=O)c3cccc(F)c3)cc2)C(=O)N1 (stereo not drawn) :: -3.69
9. CCS(=O)(=O)N1C[C@H]2CN(Cc3ccc(OC)cc3)C(=O)[C@H]2C1 :: -10.9
10. O=C(NCCOc1ccccc1)c1ccc2c(c1)C(=O)NC2=O :: 3.38
11. CCCn1nc(C)c(CN(CCN(C)C)Cc2ccccn2)c1C :: 12.9
12. O=C(CNC(=O)Nc1c(F)cccc1Oc1ccccc1)NC1CC1 :: -9.17
13. CC(=O)c1cccc(-c2nc3c([nH]2)CCNC3)c1F :: -13.2
14. CCOCCCNC(=O)Nc1ccc(F)c(C(N)=O)c1 :: 6.9
15. CC(=O)N1CCC(N2CCOC(CC3CCCCC3)C2)CC1 (stereo not drawn) :: -4.68
16. O=C(C1CCOCC1)N1CCC2(CCN(Cc3nccs3)CC2)CC1 :: 9.62
17. CC(C)NC(=O)Cn1ccc2c(Cl)cccc21 :: -19
18. Cn1cc(CNC2CCC(O)CC2)c(-c2cc3ccccc3o2)n1 (stereo not drawn) :: -6.96

---

- assay_comment: Human HepG2 cell viability assay in 384 well format
- Format: toxicity, cell-based
- Set-up: dose 125 nL, time 70.5 hour; concentration not given beside the values
- test_conditions: HepG2 cells, read-out: Inhibition
The entries below come with measured cytotoxicity at 70.5 h values attached.
measurement_type: cytotoxicity at 70.5 h (%)

1) O=C(NC1CC2(CCN(CCO)CC2)c2ccccc21)c1ccsc1 (stereo not drawn) :: 8.71
2) CC(=O)NC(C)(C)C(=O)Nc1ncc(Cc2ccc(C)c(F)c2)s1 :: -0.712
3) CCc1noc(CNc2cccc(C(=O)N3CCSCC3)c2)n1 :: 0.659
4) Cc1nsc(N2CCCN(CC(=O)N(C)C3CC3)CC2)n1 :: -4.31
5) CN(Cc1nccn1C)C1CCCN(Cc2noc(C3CC3)n2)C1 (stereo not drawn) :: 15.8
6) O=C(c1ccc(Cl)cc1)N1CCC2(C1)C(=O)Nc1ccccc12 (stereo not drawn) :: -7.9
7) O=C(Cc1ccsc1)N1CCC(c2n[nH]c3nccnc23)CC1 :: -8.21
8) CCc1nnc(C2Cc3ccccc3CN2Cc2cc(C)no2)o1 (stereo not drawn) :: -4.33
9) CN1CC(Nc2nc3c(cnn3-c3ccccc3)c(=O)[nH]2)CCC1=O (stereo not drawn) :: -10.2
10) CN1CC[C@H](N(Cc2ccccc2)CC2CC2)C[C@H](O)C1 :: 9.84
11) CSCC(CCO)NC(=O)Nc1cc(C)ccc1C (stereo not drawn) :: 0.113
12) CC(Cn1ccnc1)NS(=O)(=O)c1ccc(F)c(Cl)c1 (stereo not drawn) :: -1.84
13) c1ccc(O[C@@H]2CC[C@H]3[C@H]2OCCN3CC2CCOCC2)nc1 :: 1.68
14) Cc1cccc(C(C)(C)CNC(=O)CN(C)c2cnccn2)c1 :: -2.49
15) CCn1ccc(NC(=O)CN2C(=O)CC(C)(C)c3ccccc32)n1 :: -8.59
16) O=C(c1ncccn1)N1C[C@H]2CCC[C@@]2(COc2ccccn2)C1 :: -6.17
17) CC(C)c1nc(C2CCCN2c2ccnc(C3CCCC3)n2)no1 (stereo not drawn) :: -6.75
18) CCn1ncc2[nH]c(-c3cc(OC)c(OC)cc3OC)nc21 :: 29.7
19) CCN(CCN1CCOCC1)C(=O)c1cccnc1 :: 4.89
20) O=C(C1CCOCC1)N1C[C@@H]2CN(Cc3ccsc3)CCO[C@@H]2C1 :: -10.4
21) COc1ccc(OCc2nc(C(=O)N3CCCNC(=O)C3)co2)cc1 :: -2.16
22) Cc1cc(C)nc(CCNc2nccc(CCC(F)(F)F)n2)n1 :: 8.35
23) CN(Cc1ccc(N2CCCCC2)cc1)Cc1noc(C(C)(C)C)n1 :: -9.02

---

Reported cytotoxicity at 70.5 h values for a set of molecules
- assay_comment: Human HepG2 cell viability assay in 384 well format
- Type: toxicity, cell-based
- Set-up: dose 125 nL, time 70.5 hour; concentration not given beside the values
- test_conditions: HepG2 cells, read-out: Inhibition
measurement_type: cytotoxicity at 70.5 h (%)

1) CSc1nccn1-c1cccc(C(=O)NCC2CC2)c1 :: 0.766
2) Cc1cc(S(C)(=O)=O)c(C)c(S(=O)(=O)NCC2CCCO2)c1 (centres undefined) :: -16.8
3) Cc1ccc(C2CN(Cc3cnc(-c4ccccn4)s3)CCO2)o1 (centres undefined) :: 22.5
4) COc1cccc(C2(C(=O)NC3CCc4nccn4C3)CCCC2)c1 (centres undefined) :: 10.9
5) Cc1ccc(-n2cc(C(=O)N3CCCC(n4cccn4)C3)nn2)cc1 (centres undefined) :: -5.27
6) CC(C)(O)CCc1cccc(C(=O)N2CCC[C@H]2CN2CCCC2)c1 :: 32.8
7) Cc1occc1C(=O)NCC(O)c1ccc(Cl)s1 (centres undefined) :: 3.32
8) CC(=O)N1CCCN(C(=O)c2cnn(C(C)(C)C)c2C)CC1 :: -10.1
9) Cc1ccc(S(=O)(=O)NC[C@H]2OC[C@@H](NCc3cccs3)[C@@H]2O)cc1 :: 7.42
10) Cc1ccccc1N1CCCN(C(=O)CCCn2ccnc2C)CC1 :: -12.2
11) CSCCC(=O)N1CCCCC1CCn1cccn1 (centres undefined) :: -6.75
12) CN(C)CCOCC1CN(Cc2ccc(F)cc2)Cc2nnn(C)c21 (centres undefined) :: 2.45
13) COc1ccc(CN2CCN(Cc3nccn3C)C(C)C2)cc1F (centres undefined) :: -9.42
14) Cc1cc(C)nc(C2CCN(C(=O)c3cnco3)C2)n1 (centres undefined) :: -6.7
15) Cc1cc(C(C)NC(=O)c2ccc(O)nc2)c(C)o1 (centres undefined) :: 2.4
16) COc1ccccc1C1(CNc2snc(Cl)c2C#N)CCOCC1 :: -4.49
17) COc1ccc(C(=O)N2CCCC(C)C2)cc1F (centres undefined) :: -2.9
18) CC(C)N(CC(N)=O)Cc1csc(Cc2ccccc2)n1 :: 24.4
19) COCC(C)NC(=O)c1cc(Br)c2c(c1)OCCO2 (centres undefined) :: -10.9
20) COc1ccccc1CC(C)N(C)CCS(C)(=O)=O (centres undefined) :: -14.1
21) CCOc1ccccc1CC(=O)N1CCCC(c2ncc[nH]2)C1 (centres undefined) :: -0.431
22) Cc1cccc2[nH]c(-c3cn(C4CCNCC4)nn3)nc12 :: -3.11
23) c1cnnc(N2CCCC2CNc2ncnc3ccccc23)c1 (centres undefined) :: 11.3
24) CCN1C[C@H]2C3(CCN(S(C)(=O)=O)CC3)CC[C@@]2(C(=O)N(C)C)C1 :: -9.68
25) Cc1ccc2nc(C(=O)N3CC(n4nc(C)cc4C)C3)cn2c1 :: -9.46
26) CCn1cc(S(=O)(=O)NCc2ccnc(-n3ccnc3)c2)cn1 :: -6.31
27) O=C(Nc1nc2c(s1)CCC2)NC1CCCC1 :: -9.48
28) Cc1nc(C2CCCN2CCCn2c(=O)oc3ccccc32)no1 (centres undefined) :: 19.1
29) CNc1ncc2c(n1)CN(Cc1ccc(Cl)cc1)C2=O :: -9.81
30) Cc1nc[nH]c1CN1CCCC(CNC(=O)c2ccc(N)nc2)C1 (centres undefined) :: -6.47
31) CC(NC(=O)CNC(=O)OC(C)(C)C)c1ccc(Cl)s1 (centres undefined) :: 10.9
32) O=C(c1ccccn1)N1CCCC(c2ncncc2-c2ccncc2)C1 (centres undefined) :: -9.39
33) Cc1ccsc1C(=O)NCc1ccnc(OCC(F)(F)F)c1 :: -5.25
34) CN1CCOC[C@H]1c1nc(-c2ccc(F)cc2F)c[nH]1 :: -0.919

---

- assay_comment: Human HepG2 cell viability assay in 384 well format
- Format: toxicity, cell-based
- Design: dose 125 nL, time 70.5 hour; concentration not given beside the values
- test_conditions: HepG2 cells, read-out: Inhibition
measurement_type: cytotoxicity at 70.5 h (%)

1) CCc1ocnc1C(=O)N1CCOC(CCCC(C)C)C1 (configuration not stated) :: -12.3
2) O=C(CCc1nccs1)N1CCCC(n2ccnc2)C1 (configuration not stated) :: -11.8
3) Nc1cc2c(nn1)CCN(C(=O)CCC1CCCCC1)C2 :: -11.1
4) O=C(CC1CCCC1)N1CCC(c2cc3ncccc3c(O)n2)CC1 :: -9.11
5) Cc1ccsc1CN(CCN(C)C)C(=O)C1=NNC(=O)CC1 :: -9.85
6) Cc1noc(C)c1C(=O)N1CCCC1(C)C(=O)NC1CCCC1 (configuration not stated) :: -10.2
7) O=C(O)CC1COCCN1Cc1ccccc1-c1ccccc1 (configuration not stated) :: 14.8
8) Cc1cc(C(=O)NC(C)c2nnn[nH]2)c2cccc(C)c2n1 (configuration not stated) :: -0.0967
9) CC(C)Nc1nc2c(c(NC3CC3)n1)CCN(Cc1nccn1C)CC2 :: -1.1
10) OCCOCc1n[nH]c2c1CN(Cc1ccccn1)C2 :: -7.78
11) Cc1nc(CNCc2c(C(C)C)nn(C)c2N2CCOCC2)cs1 :: -7.63
12) CCOC(=O)Cc1csc(NC(=O)c2ccc(=O)[nH]n2)n1 :: -5.3
